Assay: Pharmacokinetic parameters following intravenous administration in rats
Type: in vivo, male Wistar rats
Conditions: male, Wistar, rat, blood, intravenous administration of 0.3 mg/kg, read-out: CL blood (converted)
Experimental: B-4. Determination of Pharmacokinetic Parameters Following Intravenous and Oral Administration: The pharmacokinetic parameters of the substance are determined in male CD-1 mice, male Wistar rats and female beagles. […] An internal standard (ZK 228859) is added to the unknown samples, calibration samples and QCs, and the protein is precipitated using excess acetonitrile. […] The substances are quantified by peak heights or areas using extracted ion chromatograms of specific MRM experiments. […]
Quantity: clearance (mL/min/kg)
One number for each entry, in mL/min/kg.

Input line: Return reported clearance; argument: "COC(=O)Nc1c(N)nc(-n2nc(Cc3ccccc3F)c3ncc(F)cc32)nc1N"
Output line: 5.5
